Entry source: patent US5164400A

target: rat liver 3-Hydroxy-3-methylglutary-Coenzyme A Reductase (Rattus norvegicus, UniProt P51639); construct: from tissue; host or cells: rat liver microsomes (solubilized, purified through second ammonium sulfate precipitation); assay: Assay for rat liver 3-Hydroxy-3-methylglutary-Coenzyme A Reductase Activity (in vitro); assay type: biochemical; conditions: enzyme solubilized from rat liver microsomes, pH 7.4, 37° C., 20 minutes
Sequence (P51639 whole entry): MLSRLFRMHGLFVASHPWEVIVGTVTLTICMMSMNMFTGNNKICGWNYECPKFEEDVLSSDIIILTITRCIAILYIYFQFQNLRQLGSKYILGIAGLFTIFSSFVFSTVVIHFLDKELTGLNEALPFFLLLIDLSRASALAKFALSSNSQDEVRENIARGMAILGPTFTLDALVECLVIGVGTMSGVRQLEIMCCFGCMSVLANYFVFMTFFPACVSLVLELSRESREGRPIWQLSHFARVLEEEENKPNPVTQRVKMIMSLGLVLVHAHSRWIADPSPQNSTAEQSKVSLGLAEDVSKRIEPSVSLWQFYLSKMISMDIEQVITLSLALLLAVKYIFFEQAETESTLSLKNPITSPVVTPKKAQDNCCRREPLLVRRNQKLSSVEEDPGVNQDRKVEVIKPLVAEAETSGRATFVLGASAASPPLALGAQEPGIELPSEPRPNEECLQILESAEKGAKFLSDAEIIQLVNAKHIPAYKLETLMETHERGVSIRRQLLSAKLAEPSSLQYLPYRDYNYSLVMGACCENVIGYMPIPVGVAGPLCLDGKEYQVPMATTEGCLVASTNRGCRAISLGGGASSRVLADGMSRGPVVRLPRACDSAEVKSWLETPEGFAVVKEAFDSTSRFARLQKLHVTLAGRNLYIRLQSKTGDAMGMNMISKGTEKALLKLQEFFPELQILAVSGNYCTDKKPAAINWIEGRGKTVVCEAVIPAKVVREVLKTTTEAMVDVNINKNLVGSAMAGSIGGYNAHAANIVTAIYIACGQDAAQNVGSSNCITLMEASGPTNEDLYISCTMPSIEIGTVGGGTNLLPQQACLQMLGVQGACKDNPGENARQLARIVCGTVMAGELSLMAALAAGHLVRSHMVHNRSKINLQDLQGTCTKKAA
quantity.name: IC50 (nM)
Answers are plain numbers, in nM.

COc1cc(F)ccc1-c1c(/C=C/[C@@H](O)C[C@@H](O)CC(=O)O)n2c3c(cccc13)CCC2(C)C (relative stereo) | 53.5

Now turn to the next compound.
Tell me the measured IC50 of COc1cc(F)ccc1-c1c(/C=C/C(O)CC(O)CC(=O)O)n2c3c(cccc13)CCC2(C)C (single isomer, unassigned) , please.
25.7
